Give measured Plant response rating, Blackgrass for each item. Keep answers brief.
Test system: blackgrass (Alopecurus myosuroides)
Assay: Test D pre-/postemergence: blackgrass
Assay type: in vivo
Conditions: Postemergence; 16 g ai/ha; scale 0 to 100

Notebook: CCOc1nn(-c2ccc(F)cc2)nc1Cc1ccnc(C(F)(F)F)c1 , Plant response rating, Blackgrass read as 15

Notebook: Cc1nn(-c2ccc(C(F)(F)F)cn2)nc1Cc1cccc(C(F)(F)F)c1 , Plant response rating, Blackgrass read as 5

Notebook: COc1nn(-c2ccc(C(F)(F)F)cc2)nc1Cc1ccnc(C(F)(F)F)c1 , Plant response rating, Blackgrass read as 15

Notebook: COc1nn(-c2ccc(C(F)(F)F)cc2)nc1Cc1ccnc(C(F)F)c1 , Plant response rating, Blackgrass read as 30

Notebook: Cc1nn(-c2ccc(C(F)(F)F)cc2)nc1Oc1ccnc(C(F)(F)F)c1 , Plant response rating, Blackgrass read as 5

* * *

Tested on: crabgrass, large (large crabgrass, Digitaria sanguinalis)
Assay: Test A pre-/postemergence: crabgrass, large
Type: in vivo
Details: Postemergence, 125 g ai/ha; 0 to 100 scale, 0 is no effect, 100 is complete control
Give measured Crabgrass, Large plant response rating for each item. Keep answers brief.
In your answer, state the number alone without any accompanying words.

Notebook: Cc1nn(-c2ccc(F)cc2)nc1Oc1nccc(C(F)(F)F)n1 [Compound 102] , Crabgrass, Large plant response rating read as 0

Notebook: Cc1nn(-c2ccc(F)cc2)nc1Oc1ccnc(C(F)(F)F)n1 [Compound 101] , Crabgrass, Large plant response rating read as 70

Notebook: Cc1nn(-c2ccc(C(F)(F)F)cc2)nc1Oc1ccnc(OCC(F)(F)F)c1 [Compound 77] , Crabgrass, Large plant response rating read as 10

* * *

Tested on: pigweed (Amaranthus retroflexus)
Experiment: Test A pre-/postemergence: pigweed
Assay type: in vivo
Conditions: Preemergence, 500 g ai/ha; 0 to 100 scale (0 no effect, 100 complete control)
measured.attribute: Plant response rating, Pigweed
In your answer, state the number alone without any accompanying words.

Notebook: CCCc1nn(-c2ccc(F)cc2F)nc1Oc1ccnc(C(F)(F)F)c1 [Compound 179] , Plant response rating, Pigweed read as 100

Notebook: CCc1nn(-c2ccc(F)cc2F)nc1Oc1ccnc(C(F)F)c1 [Compound 181] , Plant response rating, Pigweed read as 90

Notebook: FC(F)(F)c1cccc(-n2nc(Oc3ccnc(C(F)(F)F)c3)c(C3CC3)n2)c1 [Compound 199] , Plant response rating, Pigweed read as 30

Notebook: CCCc1nn(-c2ccc(C(F)(F)F)cc2)nc1Oc1ccnc(C(F)(F)F)c1 [Compound 170] , Plant response rating, Pigweed read as 100

* * *

Test system: barnyardgrass (Echinochloa crus-galli)
Assay: Test A pre-/postemergence: barnyardgrass
Format: in vivo
Settings: Postemergence, 125 g ai/ha; 0 to 100 scale, 0 is no effect, 100 is complete control
Give measured Barnyardgrass plant response rating for each item. Keep answers brief.
In your answer, state the number alone without any accompanying words.

Notebook: CON=C(c1cccc(C(F)(F)F)c1)c1nn(-c2ccnc(C(F)(F)F)c2)nc1C , Barnyardgrass plant response rating read as 10

Notebook: Cc1nn(-c2ccc(F)c(F)c2)nc1Cc1ccnc(C(F)F)c1 , Barnyardgrass plant response rating read as 60

Notebook: Cc1nn(-c2ccc(C(F)(F)F)cn2)nc1C(=O)c1cccc(C(F)(F)F)c1 , Barnyardgrass plant response rating read as 30

Notebook: Cc1nn(-c2ccc(C(F)(F)F)cc2)nc1Cn1cc(C(F)(F)F)cn1 , Barnyardgrass plant response rating read as 10

* * *

Tested on: barley (winter barley, Hordeum vulgare)
Test: Test C postemergence: barley
Assay type: in vivo
Settings: 125 g ai/ha, scale 0 to 100, 0 no effect, 100 complete control
measured.attribute: Plant response rating, Barley
In your answer, state the number alone without any accompanying words.

Notebook: Cc1nn(-c2ccnc(Cl)c2)nc1Cc1ccnc(C(F)(F)F)c1 [Compound 141] , Plant response rating, Barley read as 15

Notebook: COc1nn(-c2cccc(F)c2)nc1Cc1ccnc(C(F)(F)F)c1 [Compound 139] , Plant response rating, Barley read as 35

Notebook: COc1nn(-c2ccc(C(F)(F)F)cc2)nc1Cc1ccnc(C(F)(F)F)c1 [Compound 15] , Plant response rating, Barley read as 50

Notebook: Fc1ccc(-n2nc(Cc3ccnc(C(F)(F)F)c3)c(OC(F)F)n2)cc1 [Compound 25] , Plant response rating, Barley read as 30

* * *

Tested on: velvetleaf (Abutilon theophrasti)
Experiment: Test C pre-/postemergence: velvetleaf
Format: in vivo
Settings: Preemergence, 250 g ai/ha; scale 0 to 100, 0 no effect, 100 complete control
measured.attribute: Plant response rating, Velvetleaf
In your answer, state the number alone without any accompanying words.

Notebook: COc1nn(-c2cccc(F)c2)nc1Cc1ccnc(C(F)(F)F)c1 , Plant response rating, Velvetleaf read as 40

Notebook: CCOc1nn(-c2ccc(Cl)cc2)nc1Cc1ccnc(C(F)(F)F)c1 , Plant response rating, Velvetleaf read as 90

Notebook: Fc1ccc(-n2nc(Cc3ccnc(C(F)(F)F)c3)c(OC(F)F)n2)cc1 , Plant response rating, Velvetleaf read as 70

Notebook: CCc1nn(-c2ccc(F)c(F)c2)nc1Oc1ccnc(C(F)(F)F)c1 , Plant response rating, Velvetleaf read as 65

Notebook: CCOc1nn(-c2ccc(C(F)(F)F)cc2)nc1Cc1ccnc(C(F)(F)F)c1 , Plant response rating, Velvetleaf read as 70

Notebook: Cc1nn(-c2ccc(C(F)(F)F)cc2)nc1Oc1ccnc(C(F)(F)F)c1 , Plant response rating, Velvetleaf read as 100

Notebook: Cc1nn(-c2ccc(C(F)(F)F)cn2)nc1Oc1ccnc(C(F)(F)F)c1 , Plant response rating, Velvetleaf read as 100

* * *

Give measured Plant response rating, Ryegrass, Italian for each item. Keep answers brief.
Test system: ryegrass, Italian (Italian ryegrass, Lolium multiflorum)
Assay: Test C pre-/postemergence: ryegrass, Italian
Format: in vivo
Conditions: Postemergence, 62 g ai/ha; scale 0 to 100 (0 no effect, 100 complete control)
In your answer, state the number alone without any accompanying words.

Tested on ryegrass, Italian (Italian ryegrass, Lolium multiflorum): Cc1nn(-c2ccc(C(F)(F)F)cn2)nc1Oc1ccnc(C(F)(F)F)c1 [Compound 23] . Observed Plant response rating, Ryegrass, Italian: 10

Tested on ryegrass, Italian (Italian ryegrass, Lolium multiflorum): CCc1nn(-c2ccc(C(F)(F)F)cc2)nc1Cc1ccnc(C(F)(F)F)c1 [Compound 155] . Observed Plant response rating, Ryegrass, Italian: 45

Tested on ryegrass, Italian (Italian ryegrass, Lolium multiflorum): CCOc1nn(-c2ccc(C(F)(F)F)cc2)nc1Cc1ccnc(C(F)(F)F)c1 [Compound 164] . Observed Plant response rating, Ryegrass, Italian: 5

Tested on ryegrass, Italian (Italian ryegrass, Lolium multiflorum): COc1nn(-c2ccc(C(F)(F)F)cc2)nc1Cc1ccnc(C(F)(F)F)c1 [Compound 15] . Observed Plant response rating, Ryegrass, Italian: 45

Tested on ryegrass, Italian (Italian ryegrass, Lolium multiflorum): FC(F)(F)c1ccc(-n2nc(Cl)c(Cc3ccnc(C(F)(F)F)c3)n2)cc1 [Compound 28] . Observed Plant response rating, Ryegrass, Italian: 25

Tested on ryegrass, Italian (Italian ryegrass, Lolium multiflorum): FC(F)(F)COc1nn(-c2ccc(C(F)(F)F)cc2)nc1Cc1ccnc(C(F)(F)F)c1 [Compound 14] . Observed Plant response rating, Ryegrass, Italian: 35

Tested on ryegrass, Italian (Italian ryegrass, Lolium multiflorum): Cc1nn(-c2ccc(C(F)(F)F)cn2)nc1Cc1cccc(C(F)(F)F)c1 [Compound 106] . Observed Plant response rating, Ryegrass, Italian: 5

Tested on ryegrass, Italian (Italian ryegrass, Lolium multiflorum): Cc1nn(-c2ccc(C(F)(F)F)c(F)c2)nc1Oc1ccnc(C(F)(F)F)c1 [Compound 148] . Observed Plant response rating, Ryegrass, Italian: 35

Tested on ryegrass, Italian (Italian ryegrass, Lolium multiflorum): Cc1nn(-c2ccc(C(F)(F)F)cc2)nc1Oc1ccnc(C(F)(F)F)c1 [Compound 120] . Observed Plant response rating, Ryegrass, Italian: 5

Tested on ryegrass, Italian (Italian ryegrass, Lolium multiflorum): CCc1nn(-c2ccc(F)cc2)nc1Cc1ccnc(C(F)(F)F)c1 [Compound 154] . Observed Plant response rating, Ryegrass, Italian: 10

* * *

Test system: kochia (Kochia scoparia)
Experiment: Test D pre-/postemergence: kochia
Format: in vivo
Settings: Postemergence, 31 g ai/ha; scale 0 to 100 (0 no effect, 100 complete control)
Text: […] Treated plants and controls were maintained in a controlled growth environment for 14 to 21 days after which time all species were compared to controls and visually evaluated. […]
measured.attribute: Plant response rating: Kochia
In your answer, state the number alone without any accompanying words.

Notebook: CCOc1nn(-c2ccc(F)cc2)nc1Cc1ccnc(C(F)(F)F)c1 , Plant response rating: Kochia read as 85

Notebook: COc1nn(-c2ccc(C(F)(F)F)cc2)nc1Cc1ccnc(C(F)F)c1 , Plant response rating: Kochia read as 95

Notebook: CCc1nn(-c2ccc(C(F)(F)F)cc2)nc1Cc1ccnc(C(F)(F)F)c1 , Plant response rating: Kochia read as 80

Notebook: COc1nn(-c2ccc(C(F)(F)F)cc2)nc1Cc1ccnc(C(F)(F)F)c1 , Plant response rating: Kochia read as 90

Notebook: Cc1nn(-c2ccc(F)c(C(F)(F)F)c2)nc1Cc1ccnc(C(F)(F)F)c1 , Plant response rating: Kochia read as 80

Notebook: Cc1nn(-c2ccc(C(F)(F)F)cn2)nc1Oc1ccnc(C(F)(F)F)c1 , Plant response rating: Kochia read as 80

Notebook: Cc1nn(-c2ccc(C(F)(F)F)cn2)nc1Cc1cccc(C(F)(F)F)c1 , Plant response rating: Kochia read as 60
